test: chemical genetic growth profiling, strain panel (AID 1159580);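 note: tested at 20 µM; growth read once vehicle control cultures reached saturation at 30 °C; 1 = growth at the plate median or of vehicle wells; lower values mean less growth of the strain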; conditions: S. cerevisiae deletion strains, growth OD, locus YDL214C, strain PRR2, active compounds read low
About 2,000 (36%) of roughly 5,500 compounds were called active. Another 18% or so got no clear call; they are omitted. The list shows a part of the results.
Decision: normalized growth beneath 0.8 gives 1; normalized growth meeting or exceeding 0.8 gives -1.

{"columns": ["compound", "class"],
 "data": [
  ["N/C(Cc1cccc2ccccc12)=N/OC(=O)c1ccc(Cl)cc1", -1],
  ["OC(COc1ccc(F)cc1)(c1ccc(Cl)cc1)c1ccc(Cl)cc1", -1],
  ["Cc1onc(-c2c(F)cccc2Cl)c1/C(N)=N\\OC(=O)c1ccc(C(C)(C)C)cc1", -1],
  ["CSc1n[nH]c(-c2cc(C(C)(C)C)oc2C)c1C#N", -1],
  ["CSc1sc(C(=O)Sc2ccccc2)cc1S(=O)(=O)C(C)C", -1],
  ["CC(=O)c1ccc(Cl)c(N=Cc2cc(Br)cc(Br)c2O)c1", 1],
  ["C#CCSC1=NNC(c2ccccn2)S1 (stereo not given)", 1],
  ["CCOC(=O)c1ccc(Cl)c(N=Cc2cc(Cl)cc(Cl)c2O)c1", 1],
  ["O=S(=O)(Nc1ccccc1Oc1ccccc1)c1ccc(-c2ccno2)s1", -1],
  ["Clc1ccc(SCc2ccsc2-c2ncns2)cc1", -1],
  ["COC(=O)C1=C(Nc2ccccc2NS(=O)(=O)c2ccc(C(F)(F)F)cc2Cl)CSC1", -1],
  ["Clc1ccc(CN2CCN(c3cccc4[nH]ccc34)CC2)cc1Cl", -1],
  ["Brc1ccc(-c2csc(-c3ccncc3)n2)cc1", -1],
  ["Cc1ccc2nc(-c3ccc4c(c3)OCCO4)cn2c1", -1],
  ["CC(C)(C)c1cc(C(=O)NNc2cccc(Cl)c2)n(Cc2ccccc2)n1", -1],
  ["N#CSCC(=O)c1ccccc1", 1],
  ["O=C1c2cccc3c(Sc4ccccc4)ccc(c23)C(=O)N1NCCO", -1],
  ["Cc1cc(/C(N)=N\\OC(=O)C(C)(C)C)cc(/C(N)=N\\OC(=O)C(C)(C)C)c1", -1]
]}
